From: the supplement of paper PMC9170038

System: MS2 coat protein
Assay: apparent KD of MS2 coat protein; higher = weaker reporter binding
Settings: Eterna round: R107; input ligand: none
PARAMETER MEASURED: apparent KD of MS2 coat protein (nM)
Field: numeric (nM). Do not append units.

CGGCCCUCAGAUGAGGAUCACCCAUCUGAUACCAGCCUGGAAACAGGCCCUUGGCAGCAGAAGGUCAUCAAAGAUGACCAAGCCG [TheoAX 30 #OpenEnded #AlternativeMS2]
11.8
CAUUUUAGAAAACUAAAAUGAGUGGGUGAACGAGGACCGGUACGGCCGCCACUCGGACAUGAGGAUCACCCAUGUCCAUGUGAAA [AstrosExyTryA#22]
14.1

Notebook: UAUACUAUGAAAGUAGUAUAUACGUGUUGACGAGGACCGGUACGGCCGCCACUCGACAUGAGGAUCACCCAUGUAUAGAAUAAGU [TrypA_F1] , apparent KD of MS2 coat protein read as 23.7
